Please go through the items and note down their growth.
tested on: HCT-15 colon; assay: NCI-60 one-dose screen, 48 h (100 = growth as untreated, 0 = no growth, -100 = all killed); settings: 10 µM unless noted
Compounds without any hit were thinned out: in the full panel of roughly 83,000, 20% have a hit.
Give bare numbers, in %.

Record excerpt, results attached:
compound	growth / %
Cc1cccc(C)c1-c1cc(Cc2ccc(Cl)cc2)c(=O)[nH]n1	107
Cc1nccc2c3ccc(OCc4cn(-c5ccc(Cl)cc5)nn4)cc3n(CCCc3ccccc3)c12	45.7
COc1cc(CCNc2nc3cc(N)cc(N)c3nc2-c2ccccc2)cc(OC)c1	69.7
COc1ccc(-c2ncc(-c3ccccc3)[nH]2)cc1OC	104

Provide the reported growth of each entry below, same order.
1. COc1cc(OC)cc(C2C3=C(COC3=O)Nc3cc(OC)ccc32)c1 (centres undefined)
2. Cc1ccc(C(c2c(O)c3cc(Br)ccc3[nH]c2=O)c2c(O)c3cc(Br)ccc3[nH]c2=O)cc1

Given back:
1. 11.3
2. 79.1

Provide the reported growth of each entry below, same order.
1. COC(=O)N[C@H]1CCc2cc(OC)c(OC)c(OC)c2-c2ccc(SC)c(=O)cc21
2. COc1ccc(C(=O)/C=C/c2c(OC)cc(OC)cc2OC)c(OC)c1
3. COc1ccc(C(O)c2cc3c(N)c(C(=O)Nc4cccc(Br)c4C)sc3nc2C)cc1 (centres undefined)

Given back:
1. 9.48
2. 5.27
3. 18.6

###

test system: T-47D breast; assay: NCI-60 one-dose screen, 48 h; conditions: 10 µM unless noted
This is part of a sample that, as a whole, favours compounds with a hit. Of some 83,000 tested, about 20% had one in any assay. The source made the active and inactive calls. Rule for the calls: active = growth percent below 10; inactive = the rest.
// one of active, inactive, no free text

Past entries and their recorded results:
compound	assigned_category
COc1ccc2c(c1)OC1=C(C(=O)OC1)C2c1cc(OC)c(OC)c(OC)c1 (configuration not stated)	inactive
COc1ccc(C(=O)c2cc3c(N)c(C(=O)Nc4cccc(Br)c4C)sc3nc2C)cc1	inactive
C[C@]12C[C@H]1CC[C@]1(C)[C@@H]2CC[C@@]23C[C@H](CC[C@H]21)[C@@](O)(CO)C3	inactive
N/C(=N\N=C\c1cc2ccccc2[nH]1)N/N=C/c1cc2ccccc2[nH]1	inactive
O=C(CN1CCOCC1)Nc1ccc2ncnc(Nc3ccc(Oc4cccc(F)c4)c(Cl)c3)c2c1	inactive
COc1ccc(-c2nc(SC)nc(N3CCOCC3)c2C#N)cc1	inactive
CC[C@H](CC[C@@H](C)[C@H]1CC[C@H]2[C@@H]3CC=C4C[C@@H](OCCc5nn[nH]n5)CC[C@]4(C)[C@H]3CC[C@]12C)C(C)C	inactive
C(=C\c1n(Cc2ccc3ccccc3c2)c(-c2ccccc2)c(-c2ccccc2)[n+]1Cc1ccc2ccccc2c1)/c1ccccc1	active
CC(=O)N1N=C(c2cccc(Nc3ccncc3)c2)CC1c1ccccc1 (configuration not stated)	inactive
CN1C(=O)N(C)[C@H]2NC(NN)=N[C@H]21	inactive

Asked: Please share the test call associated with "C=C(C)[C@@H]1CC[C@]2(CO)CC[C@]3(C)[C@H](CC[C@@H]4[C@@]5(C)CCCNC(C)(C)[C@@H]5CC[C@]43C)[C@@H]12" .
Given back: inactive

Asked: Please share the test call associated with COc1ccc(/C=N/C2=C(C#N)C(c3ccccc3[N+](=O)[O-])c3ccc4ccccc4c3O2)cc1 (configuration not stated) .
Given back: inactive

###

tested on: ACHN renal; test: NCI-60 one-dose screen, 48 h (100 = growth as untreated, 0 = no growth, -100 = all killed); settings: 10 µM unless noted
Compounds without any hit were thinned out: in the full panel of roughly 83,000, 20% have a hit. Active and inactive are the calls of the source. Rule for the calls: active = growth percent below 10; inactive = the rest.
measurement_label: growth

COc1ccc(Cn2nc3c(c2-c2cc(OC)c(OC)c(OC)c2)-c2oncc2CC3)cc1 91.9% (inactive)
O=S(=O)(O)c1cc(O)c2c(N=Nc3ccc(Nc4ccccc4)c4c(S(=O)(=O)O)cccc34)cc(S(=O)(=O)O)cc2c1 98.5% (inactive)
Nc1nnc2cc(Cl)ccc2n1 89.9% (inactive)

Provide the reported growth of each entry below, same order.
1. Cc1cc(C(=O)Nc2ncnc3nc[nH]c23)no1
2. O=C1c2ccccc2-c2c1c1c(NCCCO)nc3ccccc3c1n2Cc1ccccc1

Given back:
1: 99.8% (inactive); 2: 50.1% (inactive)

Provide the reported growth of each entry below, same order.
1. Cc1nc2sc(C(=O)Nc3cccc(Br)c3)c(N)c2cc1C(=O)c1ccc(C(F)(F)F)cc1
2. Cc1cc(Nc2cccc(C(F)(F)F)c2)n2c(nc3ccccc32)c1C#N
3. CCCNC(=O)Oc1ccc(/C(=C(\C)c2ccccc2)c2ccc(OCCN3CCCCC3)cc2)cc1
4. CSc1nnc2c(=O)n(C)c(=O)n(C)c2n1
5. C[C@H]1[C@H](C)CC[C@]2(CO)CC[C@]3(C)C(=CC[C@@H]4[C@@]5(C)CCCNC(C)(C)[C@@H]5CC[C@]43C)[C@H]12

Given back:
49.7% (inactive)
46.9% (inactive)
91% (inactive)
98% (inactive)
-66.3% (active)

Provide the reported growth of each entry below, same order.
1. CC1(C)CN(Cc2ccccc2)CCN1Cc1ccccc1
2. Cc1ccc(/C=C/C(=O)c2ccc(N)cc2)c(C)c1
3. O=c1nc2n(nc1/C=C/c1ccco1)CC(c1ccc(Cl)cc1)=NN2
4. O=S(=O)(NCCCNc1nccc(-c2c(-c3ccc(F)c(O)c3)nc3sccn23)n1)c1ccc(F)cc1

Given back:
1: 109% (inactive); 2: 39.3% (inactive); 3: 122% (inactive); 4: 6.06% (active)

###

system: HOP-62 NSCLC; assay: NCI-60 one-dose screen, 48 h (100 = growth as untreated, 0 = no growth, -100 = all killed); details: 10 µM unless noted
This is part of a sample that, as a whole, favours compounds with a hit. Of some 83,000 tested, about 20% had one in any assay.
measurement_label: growth (%)
One number for each entry, in %.

Record excerpt, results attached:
compound	measurement_target	recorded_measurement
CCN1C(=O)N(CC)C2C1NN=c1s/c(=C3\C(=O)Nc4ccccc43)c(=O)n12 (stereo not drawn)	HOP-62 NSCLC	5.9
CC1NC(=S)NC(=O)/C1=C/c1cc(=O)oc2c1ccc1ccccc12 (stereo not drawn)	HOP-62 NSCLC	82.1
CN1CCN(c2cnc(C(=O)Nc3cc(F)cc4cccnc34)cn2)CC1	HOP-62 NSCLC	98.6
COc1ccc(Cn2nc(-c3cc(OC)c(OC)c(OC)c3)c3c2CCc2cnoc2-3)cc1OC	HOP-62 NSCLC	57.2
CS(=O)(=O)c1ccc(-c2cc3c(oc2=O)-c2ccccc2OC3O)cc1 (stereo not drawn)	HOP-62 NSCLC	94.9
Fc1cc(C2=NNC(c3ccc[nH]3)C2)ccc1-n1ccc(C(F)(F)F)n1 (stereo not drawn)	HOP-62 NSCLC	80.3
COc1cc(/C=C/C(=O)c2c(C)oc3nc[nH]c(=O)c23)ccc1O	HOP-62 NSCLC	93.9
COC(=O)Nc1nc2ccc(C(=O)c3cccc(I)c3)cc2[nH]1	HOP-62 NSCLC	37
CCNNC(=O)[C@@H]1[C@H](c2cc(OC)c(OC)c(OC)c2)c2cc3c(cc2[C@H](O)[C@H]1CO)OCO3	HOP-62 NSCLC	36.3
COc1ccccc1/C=C1\COc2ccc(-c3ccccc3)cc2C1=O	HOP-62 NSCLC	-55.3

Provide the reported growth of each entry below, same order.
1. CN1CCN(CCCOc2ccc3ncnc(Nc4ccc(Oc5cccc(C(F)(F)F)c5)c(Cl)c4)c3c2)CC1
2. COc1ccc(CNCCN2C(=O)c3ccc4c5c(ccc(c35)C2=O)C(=O)N(CCNCc2ccc(OC)cc2)C4=O)cc1
3. O=C(CCN1CCCC1)Nc1ccc2c(NCc3ccc(F)cc3)c3ccccc3nc2c1
4. NC(=S)N/N=C(\c1ccc(Cl)cc1)C1CC1
5. O=C(NNc1nc(Cl)nc(N2CCN(C(c3ccccc3)c3ccccc3)CC2)n1)c1ccccc1
6. COc1ccc(CNC(=O)COc2ccc(/C=N/Nc3nc4ccccc4s3)cc2)cc1

Given back:
1: 1.07; 2: -33.8; 3: -1.6; 4: 80.1; 5: 47.6; 6: 39.3

Provide the reported growth of each entry below, same order.
1. O=C(Nc1nc(-c2ccc(Br)cc2)cs1)c1cc(-c2ccc(Br)cc2)nc2ccc(Cl)cc12
2. C#CCNC(=O)[C@H](Cc1ccccc1)NC(=O)[C@]12CC[C@@H](C(=C)C)[C@@H]1[C@H]1CC[C@@H]3[C@@]4(C)Cc5c([nH]c6ccccc56)C(C)(C)[C@@H]4CC[C@@]3(C)[C@]1(C)CC2
3. O=C(CN1CCOCC1)Nc1ccc2ncnc(Nc3ccc(Oc4cccc(C(F)(F)F)c4)c(Cl)c3)c2c1
4. CCCCCCNC(=O)Oc1ccc(/C(=C(/CC)Cc2ccccc2)c2ccc(OCCN(CC)CC)cc2)cc1
5. Clc1ccc(N2N=C(c3cccc(Nc4ccncc4)c3)CC2c2ccc3c(c2)OCO3)cc1 (stereo not drawn)
6. N#Cc1cc(-c2nc3ccccc3s2)c(=O)n(NS(=O)(=O)c2ccc(Cl)cc2)c1N
7. O=C(Nc1ccc(F)cc1)c1c(NC(=O)C(F)(F)F)sc2c1CCCCC2

Given back:
[80.1, 95.2, 73.9, 88.8, 42.4, 89.6, -23.5]

Provide the reported growth of each entry below, same order.
1. COc1ccc(-c2nc3sccn3c2/C=C/C(=O)c2cc(OC)c(OC)c(OC)c2)cc1
2. Cc1c2c(cc[n+]1Cc1ccccc1)c1ccc(OCC3CCCCC3)cc1n2CC1CCCCC1
3. CN1CCN(C(=O)OCc2nc3c(N4CCOCC4)nc(-c4ccccc4)nc3n2C)CC1
4. CCCCCCOc1ccc(/C=N/Nc2cc(C)nc3ccc(Br)cc23)cc1
5. C=C1C(=O)O[C@H]2[C@H]1CC/C(COC(=O)NCCc1c[nH]c3ccc(Cl)cc13)=C\CC[C@@]1(C)O[C@@H]21

Given back:
79.1
-95
4.63
-65.4
64.6
